As shown below, each of these compounds has a reported EC50 value.
- systemName: β1-adrenergic receptor (Homo sapiens (Human))
- Sequence (P08588 whole entry, species assumed): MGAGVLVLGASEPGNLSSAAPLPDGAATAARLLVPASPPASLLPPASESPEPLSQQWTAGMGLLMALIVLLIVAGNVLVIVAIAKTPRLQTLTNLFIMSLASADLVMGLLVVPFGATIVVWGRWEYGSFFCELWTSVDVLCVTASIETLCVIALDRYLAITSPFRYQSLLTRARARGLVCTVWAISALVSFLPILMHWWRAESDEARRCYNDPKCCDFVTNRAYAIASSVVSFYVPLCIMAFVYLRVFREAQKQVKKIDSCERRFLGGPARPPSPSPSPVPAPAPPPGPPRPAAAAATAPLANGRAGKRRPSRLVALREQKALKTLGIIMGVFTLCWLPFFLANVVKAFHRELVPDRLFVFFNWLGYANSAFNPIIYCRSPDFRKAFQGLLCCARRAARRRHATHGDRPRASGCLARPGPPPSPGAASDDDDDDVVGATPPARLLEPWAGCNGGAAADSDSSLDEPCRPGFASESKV
- protocol: cAMP Gs dynamic HTRF assay, β1 expressing CHO cells
- Assay type: cell-based
- experimentalSetup: B1-AR; CHO-K1 (HitHunter); read-out: Average pEC50 [Receptor subtype: B1-AR; Cell type: CHO-K1 (HitHunter)] (converted)

For orientation, consider the following solved cases.
* CCc1ncccc1[C@@H](O)CNC(C)(C)C | > 1000 nM
* CC(C)(C)NC[C@H](O)c1cccc(NC2CCCC2)n1 | 10 to 100 nM
* CCN(CC)c1cccc([C@@H](O)CNC(C)(C)C)n1 | 10 to 100 nM
* CCOc1cccc([C@@H](O)CNC(C)(C)C)n1 | 10 to 100 nM

Please fill in: EC50 reported for CC(C)(C)NC[C@H](O)c1cccnc1-c1c[nH]nn1 = 100 to 1000 nM

###

- protocol: Dog pharmacokinetic studies
- Format: in vivo, male Beagle dogs
- experimentalSetup: male, Beagle, in vivo, PO 0.5 mg/kg
metricName: Cmax (ng/mL)
Use ng/mL as the unit, but write only the number.

The recorded Cmax for entry Cc1ncccc1[C@@H](O)CNC(C)(C)C equals 72.3

###

- systemName: β2 adrenergic receptor (Homo sapiens (Human))
- protocol: cAMP Gs dynamic HTRF assay, β2 expressing CHO cells
- Assay type: cell-based
- experimentalSetup: B2-AR; CHO-K1 (HitHunter); read-out: Average pEC50 [Receptor subtype: B2-AR; Cell type: CHO-K1 (HitHunter)] (converted)
- Procedure: cAMP homogeneous time-resolved fluorescence (HTRF). Compound efficacy was determined using the cAMP Gs dynamic HTRF assay (Cisbio, catalog #62AM4PEC) largely following the manufacturer's instructions, also detailed below. Compound preparation. […] Cell preparation. […] Cells were harvested using assay PBS, counted manually by hemocytometer or by an automated cell counter, pelleted by centrifugation (200×g, 5 minutes) and resuspended in 37° C. […] HTRF reagent addition, reading and data analysis. […]
metricName: EC50

Examples with answers:
- CC(C)(C)NCC(O)c1cccnc1C(=O)NC(C)(C)C (centres unmarked): > 1000 nM
- CC(C)(COc1ccccc1)NC[C@@H](O)c1cccc(C(F)(F)F)n1: > 1000 nM
- CC(C)(C)NC[C@H](O)c1cccnc1C1CCCC1: 10 to 100 nM
- CC1(NC[C@H](O)c2cccc(C(F)(F)F)n2)CCOCC1: 100 to 1000 nM
- Cc1cc([C@H](O)CNC(C)(C)C)ccn1: 100 to 1000 nM
- CC(C)(C)NC[C@H](O)c1cccc(NC2CC(F)C2)n1 (some centres unmarked): < 10 nM
- CC(C)NC[C@H](O)c1cccc(C2CC2)n1: < 10 nM
- CC(C)(C)NC[C@H](O)c1cccc(C2CCCC2)n1 [Compound 03-237]: < 10 nM

Lookup result for CC(C)(C)NC[C@H](O)c1cccc(C2(C#N)CC2)n1 ; measured EC50: < 10 nM

The compound listed as CC(C)(C)NC[C@H](O)c1cncc(C(F)(F)F)n1 shows EC50 equal to 10 to 100 nM

Item: CC(C)(C)NC[C@H](O)c1cccc(-c2ccc[nH]2)n1 | EC50: < 10 nM

The value of EC50 measured for the compound Cc1nc(NC2CC2)ccc1[C@@H](O)CNC(C)(C)C turned out to be 10 to 100 nM

EC50 reading for CNc1ccc([C@@H](O)CNC(C)(C)C)c(C)n1 : 10 to 100 nM

EC50 reported for this compound CC(C)(C)NC[C@H](O)c1cccnc1N1CCCC1 : > 1000 nM

Looking up CC(C)(C)NC[C@H](O)c1cccc(C2CCC2)n1 , I see its EC50 listed as < 10 nM

For CC(C)(C)NC[C@H](O)c1cccc(-c2ccc(F)cc2)n1 the compound record lists EC50 as < 10 nM

Sample CC(C)(C)NCC(O)c1cccnc1C(=O)O (centres unmarked) ; EC50 observed: > 1000 nM

# compound Cn1ccc(-c2cccc([C@@H](O)CNC(C)(C)C)n2)n1 ; its EC50 = 10 to 100 nM

The reported value for CC(C)(C)NC[C@@H](O)c1cccc(C2CCOCC2)n1 in terms of EC50 is 100 to 1000 nM

The measured EC50 associated with CCOc1cccc([C@@H](O)CNC(C)(C)C)n1 reads < 10 nM

The compound listed as CC(C)(C)NC[C@H](O)c1cc(C(F)(F)F)cnc1C1=CCCC1 has a reported EC50 of > 1000 nM

Form: compound = COc1ccc(C[C@@H](C)NC[C@H](O)c2cccc(C(F)(F)F)n2)cc1 ; EC50 = < 10 nM

Sample CC(C)(C)NC[C@H](O)c1cccc(C(C)(C)C#N)n1 ; EC50 observed: < 10 nM

Input CC(C)(C)NC[C@H](O)c1cccc(C(C)(C)CN)n1 . Output EC50: > 1000 nM

Lookup result for CNC(=O)c1cccc([C@@H](O)CNC(C)(C)C)n1 ; measured EC50: 100 to 1000 nM

// recorded EC50 for CC(C)(C)NC[C@@H](O)c1cccc(-c2cccc(Cl)c2)n1 : 10 to 100 nM

Memo: COc1ccc(C[C@@H](C)NC[C@H](O)c2cccc(C3CCCC3)n2)cc1 , reported EC50: < 10 nM

For CC1(NC[C@H](O)c2cccc(C(F)(F)F)n2)CCC1 the compound record lists EC50 as < 10 nM

###

- protocol: Dog pharmacokinetic studies
- Assay type: in vivo, male Beagle dogs
- experimentalSetup: male, Beagle, plasma, PO 2.5 mg/kg
metricName: AUC(0-inf) (µg·h/mL)
Express it in µg·h/mL; write the number only.

The reported AUC(0-inf) of the compound CC(C)(C)NC[C@H](O)c1cccc(C(F)(F)F)n1 was 1.59

###

- protocol: Rat pharmacokinetic studies
- Assay type: in vivo, male SD rats
- experimentalSetup: male, SD, plasma, IV 1 mg/kg, read-out: Vss—obs
Reported values of Vd for individual entries
Hey, just the number and the unit after it is fine.

* CC(C)(C)NC[C@H](O)c1cccc(C#N)n1 [Compound 03-5] | 1.89 L/kg

For this compound ( CC(C)(C)NC[C@H](O)c1cccc(C(F)(F)F)n1 [Compound 03-3] ), measured Vd is 2.92 L/kg

###

- protocol: Plasma protein binding, equilibrium dialysis (human)
- Assay type: in vitro ADME
- experimentalSetup: pH 7.4, equilibrium dialysis 6 hours, read-out: PPB (human), percent of unbound fraction
metricName: fraction unbound at 6 h, 1 μM
# answer = number (no unit)

Sure, the documented fraction unbound at 6 h, 1 μM for CC(C)(C)NC[C@H](O)c1cccc(C#N)n1 [Compound 03-5] is 1

The recorded fraction unbound at 6 h, 1 μM for entry CC(C)(C)NC[C@H](O)c1cccc(C(F)(F)F)n1 [Compound 03-3] equals 0.89

Note to self: fraction unbound at 6 h, 1 μM recorded for Cc1ncccc1[C@@H](O)CNC(C)(C)C [Compound 03-115] was 1

###

- systemName: β2 adrenergic receptor (Homo sapiens (Human))
- protocol: cAMP Gs dynamic HTRF assay, β2 expressing CHO cells
- Assay type: cell-based
- experimentalSetup: B2-AR; CHO-K cells; read-out: Average EC50 [Receptor subtype: B2-AR; Cell type: CHO-K]
metricName: EC50

The cases that follow already have their EC50 on record.
* CC(C)(C)NC[C@@H](O)c1ccc2ccccc2n1 | 100 to 1000 nM
* CC(C)(C)NC[C@H](O)c1cccnc1N1CCCC1 | > 1000 nM
* CC(C)(C)NC[C@@H](O)c1cccc(C2CCC2)n1 | 10 to 100 nM
* CC1(NC[C@@H](O)c2cccc(C(F)(F)F)n2)CC1 | > 1000 nM

Lab note: Cc1cc([C@H](O)CNC(C)(C)C)nc(C(F)(F)F)c1 gave EC50 of 100 to 1000 nM

Per the record, CC(C)(C)NC[C@@H](O)c1ccc(C#N)c(C(F)(F)F)n1 has EC50 of > 1000 nM

Looking up CC(C)(C)NC[C@H](O)c1cccc(-c2ccccc2Cl)n1 , I see its EC50 listed as < 10 nM

// field: EC50; key: Cc1cccc([C@H](O)CNC(C)(C)C)n1 ; value = > 1000 nM

Data point: CC(C)(C)NC[C@H](O)c1cccc(C2CCC2)n1 ; EC50 = < 10 nM

###

Recorded EC50 for the following compounds
- systemName: β2 adrenergic receptor (Homo sapiens (Human), UniProt P07550)
- Sequence (P07550 whole entry, species assumed): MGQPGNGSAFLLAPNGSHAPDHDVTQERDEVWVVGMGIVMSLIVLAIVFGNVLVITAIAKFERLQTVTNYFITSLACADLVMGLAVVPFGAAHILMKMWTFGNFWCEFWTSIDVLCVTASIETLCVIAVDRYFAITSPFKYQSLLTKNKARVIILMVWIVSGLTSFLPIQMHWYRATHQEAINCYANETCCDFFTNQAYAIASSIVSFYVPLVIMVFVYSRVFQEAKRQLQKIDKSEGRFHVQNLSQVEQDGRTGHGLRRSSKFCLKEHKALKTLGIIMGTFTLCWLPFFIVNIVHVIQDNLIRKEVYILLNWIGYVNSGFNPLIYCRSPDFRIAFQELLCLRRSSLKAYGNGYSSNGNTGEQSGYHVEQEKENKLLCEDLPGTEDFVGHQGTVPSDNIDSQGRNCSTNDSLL
- protocol: cAMP Gs dynamic HTRF assay, β2 expressing CHO cells
- Assay type: cell-based
- experimentalSetup: cAMP HTRF; read-out: β2 EC50

* CC(C)(C)NC[C@H](O)c1cc(C(F)(F)F)ccn1 | 0.1 to 1 µM
* CC(C)(C)NC[C@H](O)c1ncccc1C(F)(F)F | > 1 µM
* Cc1cccnc1[C@@H](O)CNC(C)(C)C | > 1 µM

Pending compound:
Measured EC50, CC(C)(C)NC[C@H](O)c1cccc(C(F)(F)F)n1 : < 0.01 µM
